Biological target: SHIP2-SH2 S84A (Homo sapiens, UniProt O15357, S84A)
Construct: The SHIP2 SH2 domain (hereafter represented by SHIP2-SH2)
Sequence (O15357 21-117 S84A limits assumed): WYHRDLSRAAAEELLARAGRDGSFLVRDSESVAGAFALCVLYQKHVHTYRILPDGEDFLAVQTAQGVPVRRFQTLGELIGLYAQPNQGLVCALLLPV
Assay: Fluorescence polarization binding, SHIP2-SH2 mutant S84A
Settings: FP assay; FAM-labeled 13-mer phosphopeptide 100 nM; pH 7.5; n = 3 averaged; ± standard error of fitting; SEM; read-out: dissociation constant (KD) for SHIP2-SH2 S84A
Square brackets hold non-standard residues; d marks the D form. Peptide text beside a SMILES is read from it. pY = N[C@@H](Cc1ccc(OP(=O)(O)O)cc1)C(=O)O
assay-endpoint: Kd (µM)

CC[C@H](C)[C@H](NC(=O)[C@@H]1CCCN1C(=O)[C@H](CCC(=O)O)NC(=O)[C@H](CCC(=O)O)NC(=O)[C@@H]1CCCN1)C(=O)N[C@@H](Cc1ccc(OP(=O)(O)O)cc1)C(=O)N[C@@H](C)C(=O)N[C@@H](CCC(N)=O)C(=O)N[C@H](C(=O)N[C@@H](C)C(=O)N[C@@H](CCCCN)C(=O)N[C@@H](CCCCN)C(=O)N[C@H](C(=O)O)C(C)C)C(C)C [EPIYA-B] (H-PEEPI[pY]AQVAKKV-OH) ... 17.9

* * *

Target: SHIP2-SH2 Q107A (Homo sapiens, UniProt O15357, Q107A)
Construct: The SHIP2 SH2 domain (hereafter represented by SHIP2-SH2)
Assay: Fluorescence polarization binding, SHIP2-SH2 mutant Q107A
Conditions: FP assay; FAM-labeled 13-mer phosphopeptide 100 nM; pH 7.5; n = 3 averaged; ± standard error of fitting; SEM; read-out: dissociation constant (KD) for SHIP2-SH2 Q107A
pKd: −log10 of the molar value. Square brackets hold non-standard residues; d marks the D form. Peptide text beside a SMILES is read from it. pY = N[C@@H](Cc1ccc(OP(=O)(O)O)cc1)C(=O)O
assay-endpoint: pKd

CC[C@H](C)[C@H](NC(=O)[C@@H]1CCCN1C(=O)[C@H](CCC(=O)O)NC(=O)[C@H](CCC(=O)O)NC(=O)[C@@H]1CCCN1)C(=O)N[C@@H](Cc1ccc(OP(=O)(O)O)cc1)C(=O)N[C@@H](C)C(=O)N[C@@H](CCC(N)=O)C(=O)N[C@H](C(=O)N[C@@H](C)C(=O)N[C@@H](CCCCN)C(=O)N[C@@H](CCCCN)C(=O)N[C@H](C(=O)O)C(C)C)C(C)C [EPIYA-B] (H-PEEPI[pY]AQVAKKV-OH) ... 4.67
CC[C@H](C)[C@H](NC(=O)[C@@H]1CCCN1C(=O)[C@H](CCC(=O)O)NC(=O)[C@H](CC(N)=O)NC(=O)[C@@H](N)CCC(=O)O)C(=O)N[C@@H](Cc1ccc(OP(=O)(O)O)cc1)C(=O)N[C@@H](C)C(=O)N[C@@H](CCCCN)C(=O)N[C@H](C(=O)N[C@@H](CC(N)=O)C(=O)N[C@@H](CCCCN)C(=O)N[C@@H](CCCCN)C(=O)N[C@@H](CCCCN)C(=O)O)C(C)C [EPIYA-A] (H-ENEPI[pY]AKVNKKK-OH) ... 4.59
CC[C@H](C)[C@H](NC(=O)[C@@H](NC(=O)[C@H](C)NC(=O)[C@H](Cc1ccc(OP(=O)(O)O)cc1)NC(=O)[C@@H](NC(=O)[C@@H]1CCCN1C(=O)[C@H](CCC(=O)O)NC(=O)[C@@H]1CCCN1C(=O)[C@@H](N)CO)[C@@H](C)CC)[C@@H](C)O)C(=O)N[C@@H](CC(=O)O)C(=O)N[C@@H](CC(=O)O)C(=O)N[C@@H](CC(C)C)C(=O)NCC(=O)O [EPIYA-C] (H-SPEPI[pY]ATIDDLG-OH) ... 5.56

* * *

Biological target: SHIP2-SH2 R28A (Homo sapiens, UniProt O15357, R28A)
Construct: The SHIP2 SH2 domain (hereafter represented by SHIP2-SH2)
Experiment: Fluorescence polarization binding, SHIP2-SH2 mutant R28A
Settings: FP assay; FAM-labeled 13-mer phosphopeptide 100 nM; pH 7.5; n = 3 averaged; ± standard error of fitting; SEM; read-out: dissociation constant (KD) for SHIP2-SH2 R28A
pKd: −log10 of the molar value. Square brackets hold non-standard residues; d marks the D form. Peptide text beside a SMILES is read from it. pY = N[C@@H](Cc1ccc(OP(=O)(O)O)cc1)C(=O)O
Some molecules, each annotated with its measured pKd.
assay-endpoint: pKd

CC[C@H](C)[C@H](NC(=O)[C@@H]1CCCN1C(=O)[C@H](CCC(=O)O)NC(=O)[C@H](CCC(=O)O)NC(=O)[C@@H]1CCCN1)C(=O)N[C@@H](Cc1ccc(OP(=O)(O)O)cc1)C(=O)N[C@@H](C)C(=O)N[C@@H](CCC(N)=O)C(=O)N[C@H](C(=O)N[C@@H](C)C(=O)N[C@@H](CCCCN)C(=O)N[C@@H](CCCCN)C(=O)N[C@H](C(=O)O)C(C)C)C(C)C [EPIYA-B] (H-PEEPI[pY]AQVAKKV-OH) ... 3.85
CC[C@H](C)[C@H](NC(=O)[C@@H]1CCCN1C(=O)[C@H](CCC(=O)O)NC(=O)[C@H](CC(N)=O)NC(=O)[C@@H](N)CCC(=O)O)C(=O)N[C@@H](Cc1ccc(OP(=O)(O)O)cc1)C(=O)N[C@@H](C)C(=O)N[C@@H](CCCCN)C(=O)N[C@H](C(=O)N[C@@H](CC(N)=O)C(=O)N[C@@H](CCCCN)C(=O)N[C@@H](CCCCN)C(=O)N[C@@H](CCCCN)C(=O)O)C(C)C [EPIYA-A] (H-ENEPI[pY]AKVNKKK-OH) ... 3.88
CC[C@H](C)[C@H](NC(=O)[C@@H](NC(=O)[C@H](C)NC(=O)[C@H](Cc1ccc(OP(=O)(O)O)cc1)NC(=O)[C@@H](NC(=O)[C@@H]1CCCN1C(=O)[C@H](CCC(=O)O)NC(=O)[C@@H]1CCCN1C(=O)[C@@H](N)CO)[C@@H](C)CC)[C@@H](C)O)C(=O)N[C@@H](CC(=O)O)C(=O)N[C@@H](Cc1ccccc1)C(=O)N[C@@H](CC(=O)O)C(=O)N[C@@H](CCC(=O)O)C(=O)O [EPIYA-D] ... 4.81
CC[C@H](C)[C@H](NC(=O)[C@@H](NC(=O)[C@H](C)NC(=O)[C@H](Cc1ccc(OP(=O)(O)O)cc1)NC(=O)[C@@H](NC(=O)[C@@H]1CCCN1C(=O)[C@H](CCC(=O)O)NC(=O)[C@@H]1CCCN1C(=O)[C@@H](N)CO)[C@@H](C)CC)[C@@H](C)O)C(=O)N[C@@H](CC(=O)O)C(=O)N[C@@H](CC(=O)O)C(=O)N[C@@H](CC(C)C)C(=O)NCC(=O)O [EPIYA-C] (H-SPEPI[pY]ATIDDLG-OH) ... 4.89
